# assay setup: pampa; 60.0 min; 50.0 µM
Binary label based on Papp with cut-off 9 ×10⁻⁶ cm/s: below gives condition met, not below gives condition not met.

## Input Does the reported Papp of the following molecule sit strictly below 9 ×10⁻⁶ cm/s? "CC(C)C[C@@H](C(=O)N[C@@H](Cc1ccc(OCc2ccccc2)cc1)C(=O)NC(C)(C)C)N(C)Cc1ccc(C(C)(C)C)cc1"
## Output condition not met

## Input Does the reported Papp of the following molecule sit strictly below 9 ×10⁻⁶ cm/s? "COc1ccc(CCn2cnc3c(c(-c4ccccc4)cn3Cc3ccccc3)c2=N)cc1OC"
## Output condition not met

## Input Does the reported Papp of the following molecule sit strictly below 9 ×10⁻⁶ cm/s? "CCCCCCCCc1ccc(CCC(N)(CO)CO)cc1"
## Output condition met

## Input Does the reported Papp of the following molecule sit strictly below 9 ×10⁻⁶ cm/s? "Oc1ccc(/C=C/c2cc(O)cc(O)c2)cc1"
## Output condition met

## Input Does the reported Papp of the following molecule sit strictly below 9 ×10⁻⁶ cm/s? COC1CC(=C(c2cccs2)c2cccs2)C[N+](C)(C)C1 (centres undefined)
## Output condition met

---

Entries and their Papp
# assay setup: pampa; 60.0 min; 50.0 µM
Return type: number; implicit unit ×10⁻⁶ cm/s.

CC(=O)OCC1=C(C(=O)O)N2C(=O)C(NC(=O)Cc3cccs3)C2SC1 (stereo unspecified) = 2
COc1ccc(N(C)c2nc(C)nc3ccccc23)cc1 = 220
N=c1c2c(-c3ccccc3)c(-c3ccccc3)n(CCc3ccccc3)c2ncn1C1CCN(Cc2ccccc2)CC1 = 14

## Input Hello, please tell me recorded Papp for this one: "O=C(NCCCN1CCCC1=O)c1ccc(-c2ncc3cnc(-c4ccccc4)cn23)cc1"
## Output 31

---

# assay setup: pampa; 60.0 min; 50.0 µM
Mark not met for Papp values under 100 ×10⁻⁶ cm/s, and met for everything at or above.

Example entries begin here.
COC(Cn1cnc2c(c(-c3ccccc3)c(-c3ccccc3)n2Cc2ccccc2)c1=N)OC = met
N=c1c2c(-c3ccccc3)c(-c3ccccc3)n(Cc3ccccc3)c2ncn1CCCCO = met
Cc1nc(C2CCCCC2)c(-c2ccc(S(N)(=O)=O)c(F)c2)o1 = met
COc1cccc(-c2csc3ncnc(Sc4nnnn4C)c23)c1 = met
CO/N=C(\C(=O)N[C@@H]1C(=O)N2C(C(=O)O)=C(C[N+]3(C)CCCC3)CS[C@H]12)c1csc(N)n1 = not met
CC(=O)Nc1c(I)c(C(=O)N[C@H]2C(O)O[C@H](CO)[C@@H](O)[C@@H]2O)c(I)c(N(C)C(C)=O)c1I (some centres undefined) = not met
Cn1c2cc(S(C)=O)sc2c2cnn(Cc3ccccc3F)c(=O)c21 (centres undefined) = not met
N#Cc1c[nH]c2c(C(=O)N3CCN(CCc4ccc(F)cc4)CC3)cccc12 = met

Attention now shifts to the item below.
## Input Could you please find out whether "O=C(NCCc1cnc[nH]1)c1ccc(-c2ncc3cnc(-c4cccc(F)c4)cn23)cc1" has Papp that meets 100 ×10⁻⁶ cm/s or exceeds it?
## Output not met

---

# assay setup: pampa; 60.0 min; 50.0 µM
quantity: Papp (×10⁻⁶ cm/s)
Return type: number; implicit unit ×10⁻⁶ cm/s.

Past entries and their recorded results:
Cc1ccccc1NC(=O)Nc1ccc(CC(=O)N(C)[C@@H](CC(C)C)C(=O)NCC[C@H](NC(=O)[C@@H]2CCCN2S(=O)(=O)c2cc(Cl)cc(Cl)c2)C(=O)O)cc1 = 5
N=c1c2c(-c3ccccc3)cn(Cc3ccccc3)c2ncn1C1CCC(O)CC1 (centres undefined) = 217
C[C@H]([C@@H](O)c1ccccc1)n1cnc2c(c(-c3ccccc3)c(-c3ccccc3)n2Cc2ccccc2)c1=N = 3
CCOC(=N)c1nc2ccc3ncnc(Nc4cc(F)c(F)cc4Cl)c3c2s1 = 1.2
COCCn1cnc2c(c(-c3ccccc3)c(-c3ccccc3)n2Cc2ccccc2)c1=N = 174

Here is another compound to look at.
## Input Hello, please tell me recorded Papp for this one: "N=c1c2c(-c3ccccc3)cn(Cc3ccccc3)c2ncn1CCCCO"
## Output 110
